tested on: BT-549 breast; assay: NCI tumour cell line growth inhibition, 48 h; in the data active = GI50 below about 0.43 µM; inactive = the rest
Outcome (select one): active, inactive

For orientation, consider the following solved cases.
Cc1cc(NCCCN(C)C)c2ccc3c(ccc4c(NCCCN(C)C)cc(C)nc43)c2n1 ... inactive
Cc1c(Cl)cccc1C(=O)Nc1nc2c(s1)CN(C(=O)c1ccc(C(F)(F)F)cc1)CC2 ... active

Fill in: this test's call for COc1cc(C(=O)c2c(-c3ccccc3)oc3c(OC)cccc23)cc(OC)c1OC is ___
active

Test call for this molecule, please: CCCCOC(=O)N1CCN(/[N+]([O-])=N/Oc2ccc([N+](=O)[O-])cc2[N+](=O)[O-])CC1
inactive

For Cc1cc(F)ccc1S(=O)(=O)Nc1cc(-c2c(O)ccc3ccccc23)c(O)c2ccccc12 , which call appears in the assay record?
inactive

State the result this test recorded for [Cl][Sn]([c]1ccccc1)([c]1ccccc1)[c]1ccccc1 .
active

// return assay outcome for N#C/C(=C\c1ccsc1)c1nc2ccccc2o1
inactive
